Just for reference, patent US20230382889A1 is where these values come from.

- Measured on: hKIF18A (1-374) (Homo sapiens (Human), UniProt Q8NI77)
- Sequence (Q8NI77 1-374): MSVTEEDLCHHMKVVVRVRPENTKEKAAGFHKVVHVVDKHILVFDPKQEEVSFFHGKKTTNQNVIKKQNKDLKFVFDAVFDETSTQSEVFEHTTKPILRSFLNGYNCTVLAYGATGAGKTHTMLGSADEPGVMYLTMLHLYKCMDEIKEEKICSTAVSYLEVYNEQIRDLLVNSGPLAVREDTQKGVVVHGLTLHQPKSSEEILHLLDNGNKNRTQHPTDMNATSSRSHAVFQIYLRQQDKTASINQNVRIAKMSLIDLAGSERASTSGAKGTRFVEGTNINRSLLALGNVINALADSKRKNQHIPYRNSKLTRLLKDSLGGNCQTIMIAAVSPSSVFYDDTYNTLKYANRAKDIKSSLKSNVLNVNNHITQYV
Labelling field: enter class 1 if recorded IC50 is less than 10 nM. Enter class 0 if it equals or exceeds that cut-off.

Example entries begin here.
>  <Molecule>
CS(=O)(=O)Nc1ccc(-c2nnc(-c3cccc(N4CCC(F)(F)CC4)n3)[nH]2)c(N2CCC3(CC2)CC3)c1

>  <Class>
class 1

$$$$
>  <Molecule>
CS(=O)(=O)Nc1ccc(-n2cc(-c3cccc(N4CCC(F)(F)CC4)n3)nn2)c(N2CC3CC(C3)C2)c1

>  <Class>
class 0

$$$$
>  <Molecule>
O=S(=O)(CCO)Nc1ccc(-n2cc(-c3cccc(C(O)C4CCCC4)n3)nn2)c(N2CCC3(CC2)CC3)c1 (single isomer, unassigned) [Compound 90a]

>  <Class>
class 1

$$$$
>  <Molecule>
CS(=O)(=O)Nc1ccc(-n2cc(-c3cccc(N4CCOCC4)n3)nn2)c(N2CCC3(CC2)CC3)c1

>  <Class>
class 1

$$$$
>  <Molecule>
CS(=O)(=O)Nc1ccc(-n2cc(-c3cccc(S(=O)(=O)N4CC(F)(F)C4)c3)nn2)c(N2CCC3(CC2)CC3)c1

>  <Class>
class 1

$$$$

Given the entry "O=S(=O)(CCO)Nc1ccc(-n2cc(-c3cccc(N4CCC(F)(F)CC4)n3)nn2)c(N2CCC3(CC2)CC3)c1" , would its reported IC50 be below 10 nM?
class 1

I'd appreciate it if you could check whether "CCS(=O)(=O)Nc1ccc(-c2cn(-c3cc(C)cc(N4CCC(F)(F)CC4)n3)nn2)c(N2CCC3(CC2)CC3)c1" has IC50 smaller than 10 nM.
class 0

----------
- Measured on: hKIF18A (1-374) (Homo sapiens (Human), UniProt Q8NI77)
- Method notes: Inhibition of KIF18A microtubule-dependent ATPase activity (ADP-Glo)
- Format: biochemical
- Test settings: 4 nM hKIF18A (1-374)
Item-by-item account of pIC50
Scale note: pIC50 = -log10(concentration in M).

Below, each entry is followed by its recorded pIC50 result.
>  <Molecule>
CS(=O)(=O)Nc1ccc(-c2ncc(-c3cccc(N4CC5C(C4)C5(F)F)n3)[nH]2)c(N2CCC3(CC2)CC3)c1 (stereo not shown) [Compound 30]

>  <pIC50>
7.68

$$$$
>  <Molecule>
CS(=O)(=O)Nc1ccc(-n2cc(-c3ccn(C4CCC(F)(F)CC4)n3)nn2)c(N2CCC3(CC2)CC3)c1 [Compound 41]

>  <pIC50>
7.80

$$$$
>  <Molecule>
CS(=O)(=O)Nc1ccc(-n2cc(-c3cccc(N4CC5(CCO5)C4)n3)nn2)c(N2CCC3(CC2)CC3)c1 [Compound 58]

>  <pIC50>
7.39

$$$$
>  <Molecule>
CS(=O)(=O)Nc1ccc(-c2nc(-c3cccc(N4CCOCC4)n3)no2)c(N2CCC3(CC2)CC3)c1 [Compound 163]

>  <pIC50>
5.44

$$$$
>  <Molecule>
CS(=O)(=O)Nc1ccc(-c2nnc(-c3cccc4c3OCCC4)[nH]2)c(N2CCC3(CC2)CC3)c1 [Compound 3]

>  <pIC50>
6.55

$$$$

Give hKIF18A (1-374) (Homo sapiens (Human), UniProt Q8NI77) pIC50 for CC(C)(C)NS(=O)(=O)c1cccc(-c2cn(-c3ccc(NS(=O)(=O)C4(CO)CC4)cc3N3CCC4(CC3)CC4)nn2)c1 [Compound 122]
7.74

Hi! What's the reported pIC50 for Cc1cc(-c2cn(-c3ccc(NS(=O)(=O)CCO)cc3N3CCC4(CC3)CC4)nn2)nc(N2C[C@@H](F)[C@H](F)C2)c1 [Compound 115] on hKIF18A (1-374) (Homo sapiens (Human), UniProt Q8NI77)?
7.36

Param readout = pIC50; param system = hKIF18A (1-374) (Homo sapiens (Human), UniProt Q8NI77); param query = Cc1cc(-c2cn(-c3ccc(NS(=O)(=O)CCO)cc3N3CCCCC3)nn2)nc(N2CCC(F)(F)CC2)c1 [Compound 68] ; response: value
7.92

Recorded pIC50 for O=S(=O)(CCO)Nc1ccc(-n2cc(-c3ccn(CC4CCC4)n3)nn2)c(N2CCC3(CC2)CC3)c1 [Compound 77] with hKIF18A (1-374) (Homo sapiens (Human), UniProt Q8NI77), please?
7.92

For hKIF18A (1-374) (Homo sapiens (Human), UniProt Q8NI77), provide pIC50 of O=S(=O)(CCO)Nc1ccc(-n2cc(-c3csc(N4CCCC4)n3)nn2)c(N2CCC3(CC2)CC3)c1 [Compound 81] please.
6.85

// map O=S(=O)(CCO)Nc1ccc(-n2cc(-c3ccn(C4CCC(F)(F)CC4)n3)nn2)c(N2CCC3(CCC3)CC2)c1 [Compound 130] to recorded pIC50 (system: hKIF18A (1-374) (Homo sapiens (Human), UniProt Q8NI77))
8.30
